Attribution: ChEMBL document CHEMBL1201862

- assay method text: Luminescence Cell-Based Dose Response HTS to Identify Inhibitors of 5'UTR Stem-Loop Driven Prion Protein mRNA Translation in H4 Neuroglioblastoma Cells. [Related pubchem assays: 1827 (Project Summary), 1813 (Primary HTS)]
- Format: functional
The source made the active and inactive calls. No stated cut-off is given here; in the data, actives have a measured EC50 and inactives only a lower limit.
Can you tell me EC50 for the items I'm about to list?

EC50 for CC/C(=N\CCc1c(C)[nH]c2ccccc12)C1=C(O)CC(c2ccccc2)CC1=O (centres undefined) ?
11.7 µM (active)

Now consider "CCN(CC)c1ccc2cc(NC(=O)CCC(=O)O)c(=O)oc2c1" and answer again.
3.7 µM (active)

Now consider "C[C@H]1CC[C@@H]2[C@@H](C)[C@H]3[C@H](C[C@H]4[C@@H]5CC=C6C[C@@H](O[C@@H]7O[C@H](CO)[C@H](O)[C@H](O[C@@H]8O[C@H](CO)[C@@H](O)[C@H](O)[C@H]8O)[C@H]7O[C@@H]7O[C@@H](C)[C@H](O)[C@@H](O)[C@H]7O)CC[C@]6(C)[C@H]5CC[C@]34C)N2C1" and answer again.
> 120 µM (not active)

Now consider "Cc1nnc2nc(SCC(=O)NC3CCCCC3)n(-c3ccc(Br)cc3)c(N)c1-2" and answer again.
13.9 µM (active)
